Would you mind telling me the reported IC50 of each entry?
# Tested on: THP-1 cells
# EXPERIMENT: XTT cytotoxicity assay, THP-1
# Assay type: cell-based, human
# REPORTED CONDITIONS: Homo sapiens, THP-1; XTT, 48 h incubation, none in the picture
Numbers only, in nM.

# example entries with known answers
| COMPOUND | UNIT NAME | REPORTED MEASUREMENT |
| --- | --- | --- |
| CN1CCN(C=Nc2nc(Cl)nc3c2ncn3[C@H]2C[C@H](O)[C@@H](CO)O2)CC1 | nM | 168 |
| OC[C@H]1O[C@@H](n2cnc3c(N=CN4CCCC4)nc(Cl)nc32)C[C@@H]1O | nM | 36 |

For each listed entry, give its IC50.
1. OC[C@H]1O[C@@H](n2cnc3c(N=CN4CCCCC4)nc(Cl)nc32)C[C@@H]1O
2. CN(C)C=Nc1nc(Cl)nc2c1ncn2[C@H]1C[C@H](O)[C@@H](CO)O1
3. Nc1nc(Cl)nc2c1ncn2[C@H]1C[C@H](O)[C@@H](CO)O1 [CLA, cladribine, reference compound]
4. OC[C@H]1O[C@@H](n2cnc3c(N=CN4CCOCC4)nc(Cl)nc32)C[C@@H]1O

1. 69
2. 220
3. 56
4. 41

Kindly state the measured IC50 obtained for `OC[C@H]1O[C@@H](n2cnc3c(N=CN4CCCCCC4)nc(Cl)nc32)C[C@@H]1O` with THP-1 cells.
172
